System: Wolbachia pipientis
Protocol text: Anti-Wolbachia Cell-Based Screen
Type: functional
Set-up: scale not given: in the data most compounds retested in dose-response had high values
Experimental conditions: 5 µM
Screen size: about 48,000 compounds; about 13,000 (27%) showed an effect of 50% or more. The list shows a part of the results.
Measured metric: Percent Effect (%)
One number for each entry, in %.

Here are 2 compounds. What values of Percent Effect were reported for them?
1. CNC(=O)[C@@H]1C[C@H](N)CN1Cc1cc2cc(C)cc(C)c2[nH]c1=O
2. CC1CN(C)c2ccccc2CN1C(=O)CSc1ccncc1 (configuration not stated)

a:
27.32
-15.08

Here are 6 compounds. What values of Percent Effect were reported for them?
1. Cc1csc(N(C)C(=O)C2CC(=O)N(c3ccccc3Cl)C2)n1 (configuration not stated)
2. COc1ccc(C)cc1CCNS(C)(=O)=O
3. CC1CN(C2CCN(Cc3nccn3CC(F)(F)F)CC2)CCO1 (configuration not stated)
4. O=C1CCC(C(=O)NCc2nncn2-c2ccccc2)CN1 (configuration not stated)
5. CC(C)c1noc(CCC(=O)N2CCN(C)CC2c2ccccc2)n1 (configuration not stated)
6. CCCn1cnnc1CNC1CCSC1 (configuration not stated)

a:
9.936
4.512
-6.653
3.893
2.762
5.781

Here are 4 compounds. What values of Percent Effect were reported for them?
1. N#Cc1ccc(NCCNc2ccc(C(F)(F)F)cn2)nc1
2. N#Cc1c(Cl)nsc1NCc1ccc(N2CCCC(C(N)=O)C2)cc1 (configuration not stated)
3. CC(C)(O)CSCCNC(=O)c1ccc(F)cc1Cl
4. O=C1N(CC2CC2)CCCC1(O)CN1CCc2[nH]ncc2C1 (configuration not stated)

a:
1. -10.16
2. 6.894
3. -9.614
4. -6.967

----------
System: Wolbachia pipientis
Protocol text: Anti-Wolbachia Cell-Based Screen
Assay type: functional
Parameters: scale not given: in the data most compounds retested in dose-response had high values
Experimental conditions: 5 µM
Among all 48,000 compounds or so, about 13,000 (27%) showed an effect of 50% or more. This is one part of the list.
For each of the molecules below, state its Percent Effect.

[[record]]
molecule = "CCCn1ncc(C(=O)N2CCN(C3CCSCC3)CC2)c1C"
measured_metric = "Percent Effect"
result = "7.373%"

[[record]]
molecule = "Cc1nc(C(C)C)sc1C(=O)N1CCN(C2CCSCC2)CC1"
measured_metric = "Percent Effect"
result = "90.05%"

[[record]]
molecule = "Cc1nc(CC(C)C)sc1C(=O)N1CCC1"
measured_metric = "Percent Effect"
result = "-0.1519%"

[[record]]
molecule = "Cc1nc(C(C)C)sc1C(=O)N1CCC(C(N)=O)CC1"
measured_metric = "Percent Effect"
result = "81.6%"

[[record]]
molecule = "CC(C)(C)c1ncc(C(=O)N2CCC(N3CCSCC3)CC2)c(O)n1"
measured_metric = "Percent Effect"
result = "-20.12%"


q: Quick check: Percent Effect of `O=C(NCCc1nncn1C1CC1)C1(c2ccccc2)CCC1` ?
a: -10.81%

----------
Tested on: Wolbachia pipientis
Protocol text: Anti-Wolbachia Cell-Based Screen
Assay type: functional
Parameters: scale not given: in the data most compounds retested in dose-response had high values
Experimental conditions: 5 µM
Hit rate of the full screen: of about 48,000 compounds, about 13,000 (27%) showed an effect of 50% or more. Some of the results follow.
Measured metric: Percent Effect (%)
One number for each entry, in %.

Use the examples below as a reference point.
[[record]]
compound = "O=C(c1cccc(Cl)c1F)N1CCOC2(CNCCOC2)C1 (stereo not drawn)"
measurement_units = "%"
readout_number = -25.29

[[record]]
compound = "Cc1cc(F)c(S(=O)(=O)NCCCN2CCC(O)CC2)cc1F"
measurement_units = "%"
readout_number = 7.324

[[record]]
compound = "CN(C)C(=O)c1cccc(C2CCN(c3ncccn3)CC2)n1"
measurement_units = "%"
readout_number = 135.8

[[record]]
compound = "Nc1cc2c(nn1)CCN(C(=O)Cc1ccc3c(c1)CCO3)C2"
measurement_units = "%"
readout_number = 8.586

[[record]]
compound = "O=C(CCN1C(=O)CCC1=O)Nc1ccc(OCC(F)(F)F)nc1"
measurement_units = "%"
readout_number = -54.38


Here are 3 compounds. What values of Percent Effect were reported for them?
1. O=C(C1CCS(=O)(=O)C1)N1CCN(c2cnccn2)CC1 (stereo not drawn)
2. Cc1cc(S(=O)(=O)NCC(C)(C)N)c(F)cc1F.Cl
3. Cc1ccc(S(=O)(=O)NCC(C)(C)N)c(F)c1.Cl

a:
1. -8.289
2. 106.9
3. 102.6

Here are 5 compounds. What values of Percent Effect were reported for them?
1. Cn1cc(CN(C(=O)c2ccc3ncsc3c2)C2CC2)cn1
2. O=C(O)c1cccc(CC2CCN(c3ncccn3)CC2)c1
3. CN1CC(C(=O)Nc2ccc(OCC(F)(F)C(F)F)nc2)CC1=O (stereo not drawn)
4. O=C(Nc1cnn(CC(=O)N2CCCO2)c1)c1ccccc1
5. CCNC(=O)c1cnc(Cc2ccc(F)cc2)s1

a:
77
-1.664
108
1.203
-2.208

Here are 7 compounds. What values of Percent Effect were reported for them?
1. CN(Cc1cnn(C)c1)C(=O)c1ccnc(OC2CCC2)c1
2. CCc1nc(C)c([C@H]2CN(C)C[C@@H]2C(=O)Nc2ccc(OC)nc2)[nH]1
3. Cc1ccc(S(=O)(=O)NCCCN2CCC(O)CC2)c(F)c1
4. Cc1ccc(S(=O)(=O)NC(C)(C)CN)c(F)c1.Cl
5. CN(Cc1nnc2n1CCC2)C(=O)Cc1ccc2c(c1)OCCO2
6. COc1ccc2c(c1)C1(CCN(Cc3ccccn3)CC1)N(C)CC2.O=C(O)C(F)(F)F.O=C(O)C(F)(F)F
7. O=C(Cc1ccc2c(c1)OCC2)Nc1nn[nH]n1

a:
1. -14.79
2. 6.695
3. 10.81
4. -7.288
5. -1.07
6. -3.791
7. 216.7

Here are 8 compounds. What values of Percent Effect were reported for them?
1. CCN(Cc1ccc2c(c1)OCO2)S(=O)(=O)N(C)C(C)C
2. CCN(Cc1cnn(C)c1)C(=O)c1cc2ccccc2c(=O)[nH]1
3. CCOc1ccc(NC2CCN(C(C)C)C2=O)cn1 (stereo not drawn)
4. O=C(O)CSc1nnc(-c2cn[nH]c2)n1-c1ccccc1Cl
5. CCc1[nH]c2c(CNc3cncc(C(=O)N(C)C)n3)cc(F)cc2c1C
6. COc1ccc(NC(=O)C2CC(=O)N(C)C2)cn1 (stereo not drawn)
7. Cn1nc(C2CC2)c2c1NC(=O)CC2c1ccc(CN2CCCCC2)s1 (stereo not drawn)
8. Cc1ccnc(C(NC(=O)c2sc(C)nc2C)C2CC2)n1 (stereo not drawn)

a:
[112.9, 2.375, -21.57, -15.15, -5.745, 112.1, -3.758, -13.48]
